Hey, just so you know, these numbers are from ChEMBL document CHEMBL1136381.

# tgt: Inosine-5'-monophosphate dehydrogenase (IMPDH) (Homo sapiens, UniProt P20839+P12268)
# measurement.notes: Inhibitory activity against (IMPDH) inosine 5'-monophosphate dehydrogenase
# Format: protein assay
metric: IC50 (µM)

CC(C)(C)NC(=O)C(=O)Nc1ccc(-c2cnco2)c(F)c1 : 0.73
Cc1cc(NC(=O)C(=O)NC(C)(C)C)ccc1-c1cnco1 : 0.2
COc1cc(N)ccc1-c1cnco1 : 19

a: COc1ccc(NC(=O)C(=O)NC(C)(C)C)cc1-c1cnco1
b: Nc1ccnc2cc(Cl)ccc12
Of a versus b , which is the one with smaller reported IC50? Write down the label of the entry you select.
a

====

# tgt: Inosine-5'-monophosphate dehydrogenase (IMPDH) (Homo sapiens, UniProt P20839+P12268)
# measurement.notes: Inhibitory activity against (IMPDH) inosine 5'-monophosphate dehydrogenase
# Type: protein assay
metric: IC50 (µM)

Worked examples follow.
Cc1cc2c(cc1C)C(=O)C(C#N)CO2 (stereo unspecified) : 88
CCc1cc(NC(=O)C(=O)NC(C)(C)C)ccc1-c1cnco1 : 1.2
COc1ccc2[nH]cc(C(=O)CSc3ccncc3)c2c1 : 32
Cc1ncoc1-c1ccc(NC(=O)C(=O)NC(C)(C)C)cc1 : 14

a: COc1cc(NC(=O)C(=O)NC(C)(C)C)ccc1-c1nc[nH]n1
b: CCCCc1ncoc1-c1ccc(NC(=O)C(=O)NC(C)(C)C)cc1OC
Of a versus b , which is the one with smaller reported IC50? Write down the label of the entry you select.
a
(a: 15 µM, b: 27 µM)

====

# tgt: Inosine-5'-monophosphate dehydrogenase (IMPDH) (Homo sapiens, UniProt P20839+P12268)
# measurement.notes: Inhibitory activity against (IMPDH) inosine 5'-monophosphate dehydrogenase
# Assay type: protein assay
metric: IC50 (µM)

CC(C)(C)NC(=O)C(=O)Nc1ccc(-c2cnco2)c(C(F)(F)F)c1 : 18
COc1cc(NC(=O)C(=O)NC(C)(C)C)ccc1-c1ccco1 : 8.1

P: CC(C)(C)NC(=O)C(=O)Nc1ccc(-c2cnco2)cc1
Q: CC(=O)c1ccc(O)cc1C
Of P and Q , whose reported IC50 is the larger number? Write down the label of the entry you select.
Q

P: COc1cc(NC(=O)C(=O)NC(C)(C)C)ccc1-c1ocnc1C
Q: COc1cc(NC(=O)C(=O)NC(C)(C)C)ccc1-c1ocnc1Cc1ccccc1
Of P and Q , whose reported IC50 is the larger number? Write down the label of the entry you select.
Q

====

# tgt: Inosine-5'-monophosphate dehydrogenase (IMPDH) (Homo sapiens, UniProt P20839+P12268)
# measurement.notes: Inhibitory activity against (IMPDH) inosine 5'-monophosphate dehydrogenase
# Assay type: protein assay
metric: IC50 (µM)

Oc1cccc2[nH]c3ccccc3c12 : 54
N#Cc1ccc2[nH]ccc2c1 : 99
CCOc1cc(NC(=O)C(=O)NC(C)(C)C)ccc1-c1cnco1 : 1.3

P: COc1cc(NC(=O)C(=O)NC(C)(C)C)ccc1-c1ccc[nH]1
Q: CC(C)(C)NC(=O)C(=O)Nc1ccc(-c2cnco2)c(Cl)c1
Of P and Q , whose reported IC50 is the larger number? Write down the label of the entry you select.
P
(P: 2.4 µM, Q: 0.18 µM)

A: COc1cc(NC(=O)C(=O)NC(C)(C)C)ccc1-c1cocn1
B: CC(C)(C)NC(=O)C(=O)Nc1ccc(-c2cnco2)c(O)c1
Of A and B , whose reported IC50 is the larger number? Write down the label of the entry you select.
B

a: COc1cc(NC(=O)C(=O)NC(C)(C)C)ccc1-c1cnco1
b: COc1ccc(NC(=O)C(=O)NC(C)(C)C)cc1OC
c: COc1ccc(C#N)c2ccccc12
d: COc1cc(NC(=O)C(=O)NC(C)(C)C)ccc1-c1cncs1
Sequence the entries by IC50, beginning with the highest number. Sort and list the labels as requested.
c, b, d, a
(c: 31 µM, b: 21 µM, d: 0.91 µM, a: 0.04 µM)
